viability at 28.5 h, 10 µM overview
assay: in vitro; settings: human, hela cells, % viability
Give me the value, and tack the unit on after it.

Cc1cc(C)[n+]2c(n1)N(c1ccccc1)CC2 [CBK017327G] ... 80.7%
CC(=O)NCCNc1ccc(C(=O)O)cc1[N+](=O)[O-] ... 87.8%

Prompt: Which viability at 28.5 h, 10 µM reading was recorded for the molecule O=C(CSc1nnc2c(n1)[nH]c1ccccc12)NCCOc1ccccc1 ?
Response: 101%

Prompt: Cc1noc(C)c1C(=O)N1CCC(c2nc(C)n3ccsc23)CC1 , same question.
Response: 101%

Prompt: CC(C)CN(Cc1ccc2c(c1)OCO2)C(=O)NCc1ccc2c(c1)OCO2 , same question.
Response: 96.4%

Prompt: O=C(Nc1ccc2c(c1)OCO2)c1ccc(-c2ccccc2)nc1NCCc1ccccn1 , same question.
Response: 102%

Prompt: Cn1ccc2ccc(C(=O)Nc3nccs3)cc21 , same question.
Response: 106%

Prompt: CC(C)(O)c1cc(CC2(NCC3CCCCC3)COC2)no1 , same question.
Response: 89.7%
